tested_target: CFTR ΔF508 mutant (Homo sapiens, UniProt P13569, DEL508-508)
Construct: expressed in transfected cells; host or cells: CFBE41o- (adenoviral transduction)
Sequence (P13569 with tags, fused parts or gaps DEL508-508): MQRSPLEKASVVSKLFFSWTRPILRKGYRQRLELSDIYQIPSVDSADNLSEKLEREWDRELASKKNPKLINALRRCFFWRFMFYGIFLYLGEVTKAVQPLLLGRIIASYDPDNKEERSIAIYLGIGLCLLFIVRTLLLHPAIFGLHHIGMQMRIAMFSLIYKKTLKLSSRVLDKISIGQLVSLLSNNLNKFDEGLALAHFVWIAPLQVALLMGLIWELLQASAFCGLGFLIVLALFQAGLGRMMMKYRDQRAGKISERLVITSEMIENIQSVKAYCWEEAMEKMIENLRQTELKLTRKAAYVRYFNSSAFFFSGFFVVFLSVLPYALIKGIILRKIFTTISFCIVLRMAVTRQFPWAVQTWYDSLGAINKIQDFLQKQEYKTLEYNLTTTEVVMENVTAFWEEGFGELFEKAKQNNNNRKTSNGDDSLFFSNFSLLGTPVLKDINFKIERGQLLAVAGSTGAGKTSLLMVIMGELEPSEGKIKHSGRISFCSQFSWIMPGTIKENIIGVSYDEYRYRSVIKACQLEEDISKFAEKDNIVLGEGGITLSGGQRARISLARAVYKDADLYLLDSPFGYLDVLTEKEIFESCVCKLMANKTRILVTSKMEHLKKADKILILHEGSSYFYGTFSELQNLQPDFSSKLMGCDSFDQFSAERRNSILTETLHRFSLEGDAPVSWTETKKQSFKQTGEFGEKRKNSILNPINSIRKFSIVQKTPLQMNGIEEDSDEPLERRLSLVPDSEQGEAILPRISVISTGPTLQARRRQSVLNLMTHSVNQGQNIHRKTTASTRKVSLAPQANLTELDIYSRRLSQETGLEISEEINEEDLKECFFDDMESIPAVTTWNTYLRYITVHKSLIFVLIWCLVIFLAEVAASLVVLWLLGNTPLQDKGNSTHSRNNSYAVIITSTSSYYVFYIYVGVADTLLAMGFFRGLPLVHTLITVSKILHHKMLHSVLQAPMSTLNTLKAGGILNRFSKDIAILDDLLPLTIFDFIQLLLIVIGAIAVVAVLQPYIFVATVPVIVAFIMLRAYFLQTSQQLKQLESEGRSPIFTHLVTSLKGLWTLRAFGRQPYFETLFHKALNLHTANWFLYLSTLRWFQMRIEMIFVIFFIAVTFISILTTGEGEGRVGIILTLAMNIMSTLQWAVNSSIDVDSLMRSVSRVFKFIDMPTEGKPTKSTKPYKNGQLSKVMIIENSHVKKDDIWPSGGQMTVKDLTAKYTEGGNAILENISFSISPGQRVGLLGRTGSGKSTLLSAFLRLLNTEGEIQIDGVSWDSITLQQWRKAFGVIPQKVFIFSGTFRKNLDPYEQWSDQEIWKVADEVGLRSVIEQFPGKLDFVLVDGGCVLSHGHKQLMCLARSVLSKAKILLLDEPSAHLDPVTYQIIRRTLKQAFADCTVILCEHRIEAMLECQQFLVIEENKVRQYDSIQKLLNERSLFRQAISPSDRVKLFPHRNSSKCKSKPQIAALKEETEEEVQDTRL
run_description: YFP-halide influx assay for the CFTR-ΔF508 mutation (384 well, CFBE41o- cells, FDSS/μCell)
Format: cell-based
setup_conditions: forskolin 10.67 μM, fluorescence after 36 seconds, read-out: EC50 measured by YFP-halide influx assay for the CFTR-ΔF508
result_type: pEC50
Conceptually, pEC50 converts a concentration in mol/L into minus its log10.

Reference set (7 entries):
For this compound ( `CCCc1c[nH]nc1C(=O)Nc1sc2c(c1C(N)=O)CC(C)(C)OC2(C)C` ), measured pEC50 is 7.84

For this compound ( `Cc1cc(C(=O)Nc2sc3c(c2C(N)=O)CC(C)(C)OC3(C)C)[nH]n1` ), measured pEC50 is 7.90

For this compound ( `CC1(C)Cc2c(sc(NC(=O)c3ccnn3CC(F)(F)F)c2C(N)=O)C(C)(C)O1` ), measured pEC50 is 7.70

For this compound ( `CC1(C)Cc2c(sc(NC(=O)c3cccc(C(F)F)c3)c2C(N)=O)C(C)(C)O1` ), measured pEC50 is 7.38

For this compound ( `CC1(C)Cc2c(sc(NC(=O)c3ccn(C(F)F)n3)c2C(N)=O)C(C)(C)O1` ), measured pEC50 is 7.39

For this compound ( `CC(=O)OC1(C(=O)Nc2sc3c(c2C(N)=O)CC(C)(C)OC3(C)C)CCOCC1` ), measured pEC50 is 6.22

For this compound ( CC1(C)Cc2c(sc(NC(=O)C3CCC(=O)N3)c2C(N)=O)C(C)(C)O1 (centres unmarked) ), measured pEC50 is 6.41

Now, please, on to the next compound.
For this compound ( CC(C)C(O)C(=O)Nc1sc2c(c1C(N)=O)CC(C)(C)OC2(C)C (centres unmarked) [Compound 39] ), measured pEC50 is 8.35

###

tested_target: CFTR ΔF508 mutant (Homo sapiens, UniProt P13569, DEL508-508)
Construct: expressed in transfected cells; host or cells: CFBE41o- (adenoviral transduction)
run_description: YFP-halide influx assay for the CFTR-ΔF508 mutation (384 well, CFBE41o- cells, FDSS/μCell)
Format: cell-based
setup_conditions: forskolin 10.67 μM, fluorescence after 36 seconds, read-out: EC50 measured by YFP-halide influx assay for the CFTR-ΔF508
result_type: pEC50
Conceptually, pEC50 converts a concentration in mol/L into minus its log10.

Reference set (3 entries):
For this molecule ( `CC1(C)Cc2c(sc(NC(=O)c3ccn(COP(=O)(O)O)n3)c2C(N)=O)C(C)(C)O1` ), measured pEC50 is 6.32

For this molecule ( `CC1(C)Cc2c(sc(NC(=O)[C@H](O)C(C)(C)C)c2C(N)=O)C(C)(C)O1` ), measured pEC50 is 6.90

For this molecule ( CC1(C)Cc2c(sc(NC(=O)CC(O)C3CC3)c2C(N)=O)C(C)(C)O1 (centres unmarked) ), measured pEC50 is 7.22

Next:
For this molecule ( `CC1(C)Cc2c(sc(NC(=O)c3cc(C(F)(F)F)[nH]n3)c2C(N)=O)C(C)(C)O1` ), measured pEC50 is 8.57

For this molecule ( `CC1(C)Cc2c(sc(NC(=O)c3nnc[nH]3)c2C(N)=O)C(C)(C)O1` ), measured pEC50 is 6.33

For this molecule ( `Cn1cc(C(=O)Nc2sc3c(c2C(N)=O)CC(C)(C)OC3(C)C)c(C(F)F)n1` ), measured pEC50 is 6.62

For this molecule ( CC1(C)Cc2c(sc(NC(=O)c3n[nH]cc3C3COCCO3)c2C(N)=O)C(C)(C)O1 (single isomer, unassigned) [Compound 112] ), measured pEC50 is 7.46

For this molecule ( `CC1(C)Cc2c(sc(NC(=O)c3ccc(F)cc3C(F)(F)F)c2C(N)=O)C(C)(C)O1` ), measured pEC50 is 7.15
